- Test system: CAKI-1
- Assay overview: NCI tumour cell line growth inhibition, 48 h
Calls of active or inactive are those of the source. Cut-off read from the data, not from the text of the source: active = GI50 up to about 1.1 µM and inactive = higher. Numbered stars: 1 amine (or outer) side, 2 acyl side, 3 side chain; on linkers, the order of the positions; unused ones are H or OH. Bridge positions count the residues as written; N and C are the ends. Square brackets hold non-standard residues; d marks the D form. Peptide text beside a SMILES is read from it. * marks the point of attachment. ξ: configuration not given here. X33 = O=C(C(CCCCNO[*:3])N[*:1])[*:2]; Fmoc = O=C(OCC1c2ccccc2-c2ccccc21)*; ξW = NC(Cc1c[nH]c2ccccc12)C(=O)O; ξP = O=C(O)C1CCCN1
// values below are reported GI50

The compound listed as `Cc1cc(C)c(S(=O)(=O)N(CCCCCCN)OCCCON(CCCCCCN)S(=O)(=O)c2c(C)cc(C)cc2C)c(C)c1` shows GI50 equal to 1.94 µM (inactive)

The compound listed as NC(=O)CNC(=O)C1CCCN1C(=O)C1CCCCNOC(=O)CC[C@@H](NC(=O)OCC2c3ccccc3-c3ccccc32)C(=O)NC(Cc2c[nH]c3ccccc23)C(=O)N1 (stereo partly drawn) (Fmoc-[dE][ξW][X33][ξP]G-NH2; ester 1-3) shows GI50 equal to > 100 µM (inactive)

The compound listed as `CC1=C(C(=O)Nc2cccc3c2C(=O)NC3=O)CC(C(=O)Nc2cccc3c2C(=O)NC3=O)=C(C)N1` shows GI50 equal to > 100 µM (inactive)

----------
- Tested on: COLO 205
- Assay overview: NCI tumour cell line growth inhibition, 48 h
The source made the active and inactive calls. Cut-off read from the data, not from the text of the source: active = GI50 up to about 1.1 µM and inactive = higher.
Give your call using only these classes: active, inactive

Compound	Group label
O=C1Sc2ccccc2NC1=C(C(=O)c1ccccc1)C(=O)c1ccccc1	inactive

Can you look up the reported call for `Cc1cc(S(=O)(=O)/N=C(\NN)NCC(=O)NN)c(S)cc1Cl` for me?
inactive

Can you look up the reported call for `Cc1ccc(C(=O)/C=C2\Nc3ccccc3N=C2NC23CC4CC(CC(C4)C2)C3)cc1` for me?
inactive

Can you look up the reported call for `COc1ccc2c(c1)OCCc1cn[nH]c1-2` for me?
inactive

Can you look up the reported call for `CCc1n[nH]c(=O)n1CCCCCCCCn1c(CC)n[nH]c1=O` for me?
inactive

Can you look up the reported call for CCc1c(Cc2cc(C)cc(C)c2)n2c(nc1=O)SCC2CBr (stereo not given) for me?
inactive

----------
// values below are reported GI50
- System: MDA-N
- Assay overview: NCI tumour cell line growth inhibition, 48 h
Calls of active or inactive are those of the source. Cut-off read from the data, not from the text of the source: active = GI50 up to about 1.1 µM and inactive = higher.

Past entries and their recorded results:
Compound	Endpoint label	Observed
Oc1ccc(-c2cc(-c3cc(-c4ccc(O)cc4)no3)on2)cc1	GI50	36.9 µM (inactive)
S=C1Cc2c(-c3ccccc3)cc(-c3ccc(Cl)cc3)nc2-c2ccccc2N1	GI50	4.27 µM (inactive)

The compound listed as CC(=O)OCC1OC(N2C(=O)NC(=O)C3C=C4CCCCC4=CC32)CC1OC(C)=O (stereo not drawn) shows GI50 equal to > 100 µM (inactive)

The compound listed as `CN(CCN)[C@H](CSSC[C@@H](c1ccccc1O)N(C)CCN)c1ccccc1O` shows GI50 equal to 11.9 µM (inactive)

The compound listed as `CC1=C(C(=O)Nc2cccc3c2C(=O)NC3=O)CC(C(=O)Nc2cccc3c2C(=O)NC3=O)=C(C)N1` shows GI50 equal to > 100 µM (inactive)

The compound listed as CCOC(=O)C1(C#N)C2(C#N)C(N)=NC(ON=C(C)C)(ON=C(C)C)C12C#N (stereo not drawn) shows GI50 equal to > 100 µM (inactive)

The compound listed as `O=c1c2c3c(sc2nc2n1NC=NN2)CCCC3` shows GI50 equal to 16 µM (inactive)

The compound listed as `COc1ccc2nc(NCN3C(=O)c4ccccc4C3=O)sc2c1` shows GI50 equal to > 100 µM (inactive)

The compound listed as `O=C(O)CSc1ccc([N+](=O)[O-])cc1[N+](=O)[O-]` shows GI50 equal to > 100 µM (inactive)

The compound listed as `CCC[C@H]1C(=O)N=C(N)N1C(=O)OCc1ccccc1` shows GI50 equal to > 100 µM (inactive)

The compound listed as O=c1[nH]c(=O)n(C2CC(O)C(CO)O2)cc1/N=N/NCc1ccccc1 (stereo not drawn) shows GI50 equal to > 100 µM (inactive)

The compound listed as `Cn1c(=O)oc2cc(C(=O)CN3CCN(Cc4ccc5c(c4)OCO5)CC3)c(Cl)cc21` shows GI50 equal to > 100 µM (inactive)

The compound listed as `Cn1c(=O)c2nc(COCc3nc4c(=O)n(C)c(=O)n(C)c4[nH]3)[nH]c2n(C)c1=O` shows GI50 equal to > 100 µM (inactive)

The compound listed as `Cc1cc(C)c2c(n1)S(=O)(=O)N(CCCN1CCN(c3cccc(Cl)c3)CC1)C(C(=O)c1ccccc1)=C2O` shows GI50 equal to 25.9 µM (inactive)

The compound listed as `Cc1cc2nc(N3C(=O)/C(=C/c4ccc(Oc5ccccc5)cc4)N=C3c3ccccc3)sc2cc1C` shows GI50 equal to 25.2 µM (inactive)
